tested on: ATS95; assay: qHTS profiling for inhibitors of Plasmodium falciparum proliferation (AID 504749); further: nearly all actives have a fitted effect of over 60% in size; settings: P. falciparum in erythrocytes, SYBR Green DNA, 72 h; series mostly up to 28.7 µM
Results filed as inconclusive are left out. Activity calls are given as the source filed them. The call rests on the fitted dose curve; in most records, active means well fitted inhibition curve with a large enough effect; inconclusive means small, poorly fitted or top-dose-only effect; inactive means flat fitted curve, though single readings scatter.
Hi! Could you answer with just one of these? active, inactive

Consider the following illustrative entries.
compound=C[N+]1(CCC(C(N)=O)(c2ccccc2)c2ccccc2)CCCCC1 tested_on=ATS95 assigned_class=inactive
compound=NC(=O)OCCCc1ccccc1 tested_on=ATS95 assigned_class=inactive
compound=CCC1(CC)C(=O)NC(=O)NC1=O tested_on=ATS95 assigned_class=inactive
compound=CCC(=O)O[C@H]1CC[C@H]2[C@@H]3CCC4=CC(=O)CC[C@]4(C)[C@H]3CC[C@]12C tested_on=ATS95 assigned_class=inactive
compound="CCN(CC)C(C)C(=O)c1ccccc1 (centres undefined)" tested_on=ATS95 assigned_class=inactive

Test call, this compound: CC(C)C(Br)C(=O)NC(N)=O (centres undefined)
inactive

Tell me the recorded outcome of this test for C=CCOC(Cn1ccnc1)c1ccc(Cl)cc1Cl (centres undefined) .
active

Record lookup: outcome of this test for `Cc1ncc2n1-c1ccc(Cl)cc1C(c1ccccc1F)=NC2` ?
inactive
